Target: KRAS^G12C protein (Homo sapiens, UniProt P01116, G12C)
Test: Bio-Layer Interferometry
Format: binding
Where a SMILES comes first, the peptide text is derived from it. Bridges are numbered along the chain shown (N, C = ends). [ ]: non-standard residue; d: D form. S5 = C=CCCC[C@](C)(N)C(=O)O
// boundary case: Kd equal to 60 µM maps to not fulfilled; strictly smaller maps to fulfilled

molecule: CC(=O)N[C@@]1(C)CCCC=CCCC[C@@](C)(C(=O)N[C@@H](CC(C)C)C(=O)N[C@@H](CCCCN)C(=O)N[C@H](C(N)=O)[C@@H](C)O)NC(=O)[C@H](CC(N)=O)NC(=O)[C@H]([C@@H](C)O)NC(=O)[C@H](CC(C)C)NC1=O [Peptide 8] (Ac-[S5]LTN[S5]LKT-NH2; staple 1-5)
label: fulfilled

molecule: CC[C@H](C)[C@H](NC(=O)CNC(=O)[C@H](Cc1ccccc1)NC(C)=O)C(=O)N[C@@]1(C)CCCC=CCCC[C@@](C)(C(=O)N[C@@H](CC(C)C)C(N)=O)NC(=O)[C@H](CC(N)=O)NC(=O)[C@H]([C@@H](C)O)NC(=O)[C@H](CC(C)C)NC1=O [Peptide 9] (Ac-FGI[S5]LTN[S5]L-NH2; staple 4-8)
label: not fulfilled

molecule: CC[C@H](C)[C@H](NC(=O)CNC(=O)[C@H](Cc1ccccc1)NC(=O)[C@H](Cc1ccccc1)NC(C)=O)C(=O)N[C@@]1(C)CCCC=CCCC[C@@](C)(C(=O)N[C@@H](CC(C)C)C(=O)N[C@@H](CCCCN)C(=O)N[C@H](C(=O)N[C@@H](CCC(=O)O)C(N)=O)[C@@H](C)O)NC(=O)[C@H](CC(N)=O)NC(=O)[C@H]([C@@H](C)O)NC(=O)[C@H](CC(C)C)NC1=O [Peptide 2] (Ac-FFGI[S5]LTN[S5]LKTE-NH2; staple 5-9)
label: fulfilled

molecule: CC[C@H](C)[C@H](NC(=O)CNC(=O)[C@H](Cc1ccccc1)NC(C)=O)C(=O)N[C@@]1(C)CCCC=CCCC[C@@](C)(C(N)=O)NC(=O)[C@H](CC(N)=O)NC(=O)[C@H]([C@@H](C)O)NC(=O)[C@H](CC(C)C)NC1=O [Peptide 10] (Ac-FGI[S5]LTN[S5]-NH2; staple 4-8)
label: not fulfilled

Criterion: Kd strictly below 60 µM. Is it met by CC[C@H](C)[C@H](NC(C)=O)C(=O)N[C@@]1(C)CCCC=CCCC[C@@](C)(C(=O)N[C@@H](CC(C)C)C(=O)N[C@@H](CCCCN)C(=O)N[C@H](C(N)=O)[C@@H](C)O)NC(=O)[C@H](CC(N)=O)NC(=O)[C@H]([C@@H](C)O)NC(=O)[C@H](CC(C)C)NC1=O [Peptide 7] (Ac-I[S5]LTN[S5]LKT-NH2; staple 2-6) ?
not fulfilled

----------
Biological target: KRAS^G12C protein (Homo sapiens, UniProt P01116, G12C)
Assay: Bio-Layer Interferometry
Assay type: binding
Where a SMILES comes first, the peptide text is derived from it. Bridges are numbered along the chain shown (N, C = ends). [ ]: non-standard residue; d: D form. S5 = C=CCCC[C@](C)(N)C(=O)O
recorded.endpoint: kon (M⁻¹ s⁻¹)
Please reply with the bare figure in M⁻¹ s⁻¹ and do not write the unit itself.

compound: CC(=O)N[C@@]1(C)CCCC=CCCC[C@@](C)(C(N)=O)NC(=O)[C@H](CC(N)=O)NC(=O)[C@H]([C@@H](C)O)NC(=O)[C@H](CC(C)C)NC1=O [Peptide 6] (Ac-[S5]LTN[S5]-NH2; staple 1-5)
unit.spec: M⁻¹ s⁻¹
kon: 3.22

GET /values?readout=kon&item= CC[C@H](C)[C@H](NC(C)=O)C(=O)N[C@@]1(C)CCCC=CCCC[C@@](C)(C(=O)N[C@@H](CC(C)C)C(N)=O)NC(=O)[C@H](CC(N)=O)NC(=O)[C@H]([C@@H](C)O)NC(=O)[C@H](CC(C)C)NC1=O [Peptide 5] (Ac-I[S5]LTN[S5]L-NH2; staple 2-6)
3.12

GET /values?readout=kon&item= CC(=O)N[C@@]1(C)CCCC=CCCC[C@@](C)(C(=O)N[C@@H](CC(C)C)C(=O)N[C@@H](CCCCN)C(=O)N[C@H](C(N)=O)[C@@H](C)O)NC(=O)[C@H](CC(N)=O)NC(=O)[C@H]([C@@H](C)O)NC(=O)[C@H](CC(C)C)NC1=O [Peptide 8] (Ac-[S5]LTN[S5]LKT-NH2; staple 1-5)
1750

GET /values?readout=kon&item= CC[C@H](C)[C@H](NC(=O)CNC(=O)[C@H](Cc1ccccc1)NC(C)=O)C(=O)N[C@@]1(C)CCCC=CCCC[C@@](C)(C(N)=O)NC(=O)[C@H](CC(N)=O)NC(=O)[C@H]([C@@H](C)O)NC(=O)[C@H](CC(C)C)NC1=O [Peptide 10] (Ac-FGI[S5]LTN[S5]-NH2; staple 4-8)
294

GET /values?readout=kon&item= CC[C@H](C)[C@H](NC(=O)CNC(C)=O)C(=O)N[C@@]1(C)CCCC=CCCC[C@@](C)(C(=O)N[C@@H](CC(C)C)C(=O)N[C@@H](CCCCN)C(N)=O)NC(=O)[C@H](CC(N)=O)NC(=O)[C@H]([C@@H](C)O)NC(=O)[C@H](CC(C)C)NC1=O [Peptide 4] (Ac-GI[S5]LTN[S5]LK-NH2; staple 3-7)
97.6

GET /values?readout=kon&item= CC[C@H](C)[C@H](NC(=O)CNC(=O)[C@H](Cc1ccccc1)NC(=O)[C@H](Cc1ccccc1)NC(C)=O)C(=O)N[C@@]1(C)CCCC=CCCC[C@@](C)(C(=O)N[C@@H](CC(C)C)C(=O)N[C@@H](CCCCN)C(=O)N[C@H](C(=O)N[C@@H](CCC(=O)O)C(N)=O)[C@@H](C)O)NC(=O)[C@H](CC(N)=O)NC(=O)[C@H]([C@@H](C)O)NC(=O)[C@H](CC(C)C)NC1=O [Peptide 2] (Ac-FFGI[S5]LTN[S5]LKTE-NH2; staple 5-9)
43600

GET /values?readout=kon&item= CC[C@H](C)[C@H](NC(=O)CNC(=O)[C@H](Cc1ccccc1)NC(C)=O)C(=O)N[C@@]1(C)CCCC=CCCC[C@@](C)(C(=O)N[C@@H](CC(C)C)C(=O)N[C@@H](CCCCN)C(=O)N[C@H](C(N)=O)[C@@H](C)O)NC(=O)[C@H](CC(N)=O)NC(=O)[C@H]([C@@H](C)O)NC(=O)[C@H](CC(C)C)NC1=O [Peptide 3] (Ac-FGI[S5]LTN[S5]LKT-NH2; staple 4-8)
4600

----------
Target: KRAS^G12C protein (Homo sapiens, UniProt P01116, G12C)
Assay: Bio-Layer Interferometry
Format: binding
Where a SMILES comes first, the peptide text is derived from it. Bridges are numbered along the chain shown (N, C = ends). [ ]: non-standard residue; d: D form. S5 = C=CCCC[C@](C)(N)C(=O)O
Listed compounds paired with reported kon
Please reply with the bare figure in M⁻¹ s⁻¹ and do not write the unit itself.

compound: CC[C@H](C)[C@H](NC(=O)CNC(=O)[C@H](Cc1ccccc1)NC(C)=O)C(=O)N[C@@]1(C)CCCC=CCCC[C@@](C)(C(=O)N[C@@H](CC(C)C)C(N)=O)NC(=O)[C@H](CC(N)=O)NC(=O)[C@H]([C@@H](C)O)NC(=O)[C@H](CC(C)C)NC1=O [Peptide 9] (Ac-FGI[S5]LTN[S5]L-NH2; staple 4-8)
unit.spec: M⁻¹ s⁻¹
kon: 1630

compound: CC[C@H](C)[C@H](NC(C)=O)C(=O)N[C@@]1(C)CCCC=CCCC[C@@](C)(C(=O)N[C@@H](CC(C)C)C(=O)N[C@@H](CCCCN)C(=O)N[C@H](C(N)=O)[C@@H](C)O)NC(=O)[C@H](CC(N)=O)NC(=O)[C@H]([C@@H](C)O)NC(=O)[C@H](CC(C)C)NC1=O [Peptide 7] (Ac-I[S5]LTN[S5]LKT-NH2; staple 2-6)
unit.spec: M⁻¹ s⁻¹
kon: 64.7

Kindly review the next compound as well.
GET /values?readout=kon&item= CC[C@H](C)[C@H](NC(=O)CNC(=O)[C@H](Cc1ccccc1)NC(=O)[C@H](Cc1ccccc1)NC(=O)[C@H](CCCNC(=N)N)NC(=O)[C@H](CCCNC(=N)N)NC(C)=O)C(=O)N[C@@]1(C)CCCC=CCCC[C@@](C)(C(=O)N[C@@H](CC(C)C)C(=O)N[C@@H](CCCCN)C(=O)N[C@H](C(=O)N[C@@H](CCC(=O)O)C(=O)N[C@@H](CCC(=O)O)C(=O)NCC(=O)N[C@@H](CC(N)=O)C(N)=O)[C@@H](C)O)NC(=O)[C@H](CC(N)=O)NC(=O)[C@H]([C@@H](C)O)NC(=O)[C@H](CC(C)C)NC1=O [Peptide 1, reference compound]
14800
